Measured values drawn from the supplement of paper PMC10567573 for this set.

B1: BRF1 (parent)
chain: CTACGSVLEDNIIVSEVQFVESSG

variants of: B1; experiment: protein stability index of a GFP-peptide fusion (GPS, HEK-293T) (PSI 1-6); higher = more stable; settings: c terminus: a fixed tail appended;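 note: lentivirally expressed fusions sorted by FACS into six bins by GFP to DsRed ratio, PSI derived from sequencing read proportions per bin multiplied by bin number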
# cutoff 3 applies to protein stability index; >= gives 1, < gives 0

# input Does the variant CTACGSVLSDNIIVSEVQFVESSG have recorded protein stability index that is 3 or more?
# output 0

# input Does the variant CTACGSVLEDNIIVSEQQFVESSG have recorded protein stability index that is 3 or more?
# output 1

# input Does the variant CTACGSVKEDNIIVSEVQFVESSG have recorded protein stability index that is 3 or more?
# output 1

# input Does the variant CTACGSVLEDNIRVSEVQFVESSG have recorded protein stability index that is 3 or more?
# output 1

# input Does the variant CTACGSVLEDNIIFSEVQFVESSG have recorded protein stability index that is 3 or more?
# output 0

# input Does the variant CTACGSVLEDNIIGSEVQFVESSG have recorded protein stability index that is 3 or more?
# output 1

# input Does the variant CTACGSVPEDNIIVSEVQFVESSG have recorded protein stability index that is 3 or more?
# output 1

# input Does the variant CTACGSVLEDNMIVSEVQFVESSG have recorded protein stability index that is 3 or more?
# output 1
